assay_system: human GLP-1 receptor (human, UniProt P43220 24-463)
protocol_description: cell-based or functional assay
Numbered stars: 1 amine (or outer) side, 2 acyl side, 3 side chain; on linkers, the order of the positions; unused ones are H or OH. Square brackets hold non-standard residues; d marks the D form. Side chains are listed from the residue outwards. Ends that are not written are not given here. * marks the point of attachment. C18 diacid = O=C(O)CCCCCCCCCCCCCCCCC(=O)*; γGlu = O=C(O)[C@H](CCC(=O)[*:2])N[*:1]; AEEA = NCCOCCOCC(=O)O; Aib = CC(C)(N)C(=O)O
Field: label. Allowed values: 1.0 (EC50 GLP-1R, CRE luciferase reporter gene assay in BHK cells < 7 pM) or 0.0 (EC50 GLP-1R, CRE luciferase reporter gene assay in BHK cells >= 7 pM).

| binder | label |
| --- | --- |
| H[Aib]QGTFTSDLSKYLDLRRARDFVQWLLK([Gly-Ser-Glu-Ser-γGlu-γGlu-C18 diacid])T-NH2 | 0.0 |

Q: Does the reported EC50 GLP-1R, CRE luciferase reporter gene assay in BHK cells of H[Aib]QGTFTSDLSKYLDLKRAREFVQWLLK([γGlu-γGlu-AEEA-AEEA-γGlu-C18 diacid])T-NH2 stay below 7 pM?
Ans: 0.0

Q: Field entry: H[Aib]QGTFTSDLSKYLDKRRAREFVAWLLNT-NH2 (not fully specified (residue 16))
Ans: 1.0

Q: What would you report for H[Aib]QGTFTSDLSKYLESRRAREFVQWLLKT-NH2 (not fully specified (residue 28)) ?
Ans: 1.0
